target system: Tyrosine-protein kinase Yes (Homo sapiens) (UniProt P07947)
Sequence (P07947 2-543 limits assumed): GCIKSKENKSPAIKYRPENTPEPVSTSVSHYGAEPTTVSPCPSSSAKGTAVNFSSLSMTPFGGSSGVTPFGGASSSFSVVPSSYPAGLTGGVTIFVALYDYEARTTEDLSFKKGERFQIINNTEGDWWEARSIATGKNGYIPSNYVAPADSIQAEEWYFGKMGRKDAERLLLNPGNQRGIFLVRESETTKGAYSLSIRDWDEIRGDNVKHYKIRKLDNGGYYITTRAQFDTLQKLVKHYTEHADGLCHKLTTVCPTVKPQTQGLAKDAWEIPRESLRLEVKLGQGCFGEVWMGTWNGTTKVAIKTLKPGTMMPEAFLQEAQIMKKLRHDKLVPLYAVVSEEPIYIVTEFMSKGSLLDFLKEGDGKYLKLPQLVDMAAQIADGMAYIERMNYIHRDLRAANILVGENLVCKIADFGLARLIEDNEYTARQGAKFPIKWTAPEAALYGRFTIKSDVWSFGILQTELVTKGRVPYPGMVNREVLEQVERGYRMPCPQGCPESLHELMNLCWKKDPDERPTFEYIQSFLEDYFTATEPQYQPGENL
test method notes: Inhibition of full length recombinant GST-tagged human YES1 expressed in baculovirus expression system at 500 nM using Tyr 02 as substrate incubated for 1 hr in presence of ATP at its Km concentration by Z'-LYTE assay relative to control
measure name: inhibition (%)

I. CN(C)CCNCc1ccc(-c2cc3c(N[C@H](CO)c4ccccc4)ncnc3[nH]2)cc1F
II. OCC[C@@H](Nc1ncnc2[nH]c(-c3ccccc3)cc12)c1ccccc1
Task: Kindly identify which of I and II has the larger recorded inhibition value. Pick one; state its label.
Result: I
(I: 81%, II: 50%)

---

target system: cAMP-dependent protein kinase catalytic subunit alpha (Homo sapiens) (UniProt P17612)
test method notes: Inhibition of recombinant human His-tagged PRKACA (1 to 351 residues) expressed in Escherichia coli expression system at 500 nM using Ser/Thr 01 as substrate incubated for 1 hr in presence of ATP at its Km concentration by Z'-LYTE assay relative to control
measure name: inhibition (%)

A. OC[C@@H](Nc1ncnc2[nH]c(-c3ccccc3)cc12)c1ccccc1
B. CN(C)CCNCc1ccc(-c2cc3c(N[C@H](CO)c4ccccc4)ncnc3[nH]2)cc1F
C. COc1ccccc1-c1cc2c(N[C@H](CO)c3ccccc3)ncnc2[nH]1
Task: Using measured inhibition, arrange the molecules from above in descending sequence. The response must list the labels following the requested ordering.
Result: B, A, C

---

target system: Fibroblast growth factor receptor 1 (Homo sapiens) (UniProt P11362)
Sequence (P11362 22-822 limits assumed): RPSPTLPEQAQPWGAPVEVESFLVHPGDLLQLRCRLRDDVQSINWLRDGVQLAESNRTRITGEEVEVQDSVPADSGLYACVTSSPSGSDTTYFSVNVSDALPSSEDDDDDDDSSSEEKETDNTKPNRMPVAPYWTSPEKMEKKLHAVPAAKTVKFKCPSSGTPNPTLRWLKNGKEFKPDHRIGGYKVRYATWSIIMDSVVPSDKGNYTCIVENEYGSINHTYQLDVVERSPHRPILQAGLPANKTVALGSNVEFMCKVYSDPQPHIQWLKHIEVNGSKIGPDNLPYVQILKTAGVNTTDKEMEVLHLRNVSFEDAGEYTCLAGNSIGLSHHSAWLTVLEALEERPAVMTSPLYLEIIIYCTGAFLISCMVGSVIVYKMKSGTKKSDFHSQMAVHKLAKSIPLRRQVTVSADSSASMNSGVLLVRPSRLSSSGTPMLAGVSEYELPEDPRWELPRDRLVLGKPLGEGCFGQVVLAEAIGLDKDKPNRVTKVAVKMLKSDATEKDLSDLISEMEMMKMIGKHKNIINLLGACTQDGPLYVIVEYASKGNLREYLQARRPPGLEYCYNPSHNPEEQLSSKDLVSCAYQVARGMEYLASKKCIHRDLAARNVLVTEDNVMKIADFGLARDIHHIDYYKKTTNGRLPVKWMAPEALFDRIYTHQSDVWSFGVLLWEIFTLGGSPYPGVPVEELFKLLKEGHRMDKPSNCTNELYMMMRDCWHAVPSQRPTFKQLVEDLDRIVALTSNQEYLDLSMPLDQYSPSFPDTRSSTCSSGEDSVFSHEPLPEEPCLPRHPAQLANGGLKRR
test method notes: Inhibition of recombinant human His-tagged FGFR1 (308 to 731 residues) expressed in baculovirus expression system at 500 nM using Tyr 04 peptide as substrate incubated for 1 hr in presence of ATP at its Km concentration by Z'-LYTE assay relative to control
measure name: inhibition (%)

Some compounds with known inhibition results, for comparison:
INSERT INTO measurements (compound, measure_name, unit, reported_value) VALUES
  ('CN(C)CCNCc1ccc(-c2cc3c(N[C@H](CO)c4ccccc4)ncnc3[nH]2)cc1F', 'inhibition', '%', 9),
  ('OCC[C@@H](Nc1ncnc2[nH]c(-c3ccccc3)cc12)c1ccccc1', 'inhibition', '%', 0),
  ('CCOc1ccccc1-c1cc2c(N[C@H](CO)c3ccccc3)ncnc2[nH]1', 'inhibition', '%', 3);

A. COc1ccccc1-c1cc2c(N[C@H](CO)c3ccccc3)ncnc2[nH]1
B. C#Cc1cccc(Nc2ncnc3cc(OCCOC)c(OCCOC)cc23)c1 [ERLOTINIB]
Task: Kindly identify which of A and B has the larger recorded inhibition value. Pick one; state its label.
Result: A
(A: 6%, B: -4%)

---

target system: UniProt:P00533
test method notes: Inhibition of human EGFR using poly[Glu:Tyr] (4:1) as substrate in presence of [gamma33P]ATP by radiometric HotSpot assay
pIC50: −log10 of the molar value.
measure name: pIC50

Some compounds with known pIC50 results, for comparison:
INSERT INTO assay_data (smiles_entry, target_system, measure_name, reported_value) VALUES
  ('C[C@@H](Nc1ncnc2[nH]c(-c3ccc(S(C)(=O)=O)cc3)cc12)c1ccccc1', 'UniProt:P00533', 'pIC50', 9.40),
  ('NC(=O)Cc1cccc(-c2cc3c(N[C@H](CO)c4ccccc4)ncnc3[nH]2)c1', 'UniProt:P00533', 'pIC50', 9.15),
  ('COc1cc(NS(C)(=O)=O)ccc1-c1cc2c(N[C@H](CO)c3ccccc3)ncnc2[nH]1', 'UniProt:P00533', 'pIC50', 9.52);

A. CCOc1ccccc1-c1cc2c(N[C@H](CCO)c3ccccc3)ncnc2[nH]1
B. COc1cc(NC(C)=O)ccc1-c1cc2c(N[C@H](CO)c3ccccc3)ncnc2[nH]1
C. COC[C@@H](Nc1ncnc2[nH]c(-c3ccc(CO)cc3OC)cc12)c1ccccc1
Task: rank_up(items): orders items by reported pIC50 in ascending numerical order. The response must list the labels following the requested ordering.
Result: B, C, A

P. CS(=O)(=O)c1ccc(-c2cc3c(N[C@H](CO)c4ccccc4)ncnc3[nH]2)cc1
Q. OC[C@@H](Nc1ncnc2[nH]c(-c3cccnc3)cc12)c1ccccc1
R. C[C@@H](Nc1ncnc2[nH]c(-c3ccc(NS(C)(=O)=O)cc3)cc12)c1ccccc1
S. CN(C)CCNCc1ccc(-c2cc3c(N[C@H](CO)c4ccccc4)ncnc3[nH]2)cc1F
T. C[C@@H](Nc1ncnc2[nH]c(-c3ccccc3OC(F)(F)F)cc12)c1ccccc1
Task: Sort by pIC50, descending. The response must list the labels following the requested ordering.
Result: S, R, P, Q, T

1. CC(C)Oc1ccccc1-c1cc2c(N[C@H](C)c3ccccc3)ncnc2[nH]1
2. COc1cc(CNCCN2CCCCC2)ccc1-c1cc2c(N[C@H](CO)c3ccccc3)ncnc2[nH]1
3. Cn1c(-c2ccccc2)cc2c(N[C@H](CO)c3ccccc3)ncnc21
4. COc1cc(CNCCN(C)C)ccc1-c1cc2c(N[C@H](CO)c3ccccc3)ncnc2[nH]1
Task: rank_up(items): orders items by reported pIC50 in ascending numerical order. The response must list the labels following the requested ordering.
Result: 3, 1, 4, 2
(3: 6.05, 1: 9.22, 4: 9.52, 2: 10.00)

A. C[C@@H](Nc1ncnc2[nH]c(-c3ccncc3)cc12)c1ccccc1
B. COc1cc(CN(C)CCN(C)C)ccc1-c1cc2c(N[C@H](CO)c3ccccc3)ncnc2[nH]1
Task: Kindly identify which of A and B has the larger recorded pIC50 value. Pick one; state its label.
Result: B
(B: 10.00, A: 9.22)

---

target system: Epidermal growth factor receptor (Homo sapiens, UniProt P00533)
Sequence (P00533 whole entry): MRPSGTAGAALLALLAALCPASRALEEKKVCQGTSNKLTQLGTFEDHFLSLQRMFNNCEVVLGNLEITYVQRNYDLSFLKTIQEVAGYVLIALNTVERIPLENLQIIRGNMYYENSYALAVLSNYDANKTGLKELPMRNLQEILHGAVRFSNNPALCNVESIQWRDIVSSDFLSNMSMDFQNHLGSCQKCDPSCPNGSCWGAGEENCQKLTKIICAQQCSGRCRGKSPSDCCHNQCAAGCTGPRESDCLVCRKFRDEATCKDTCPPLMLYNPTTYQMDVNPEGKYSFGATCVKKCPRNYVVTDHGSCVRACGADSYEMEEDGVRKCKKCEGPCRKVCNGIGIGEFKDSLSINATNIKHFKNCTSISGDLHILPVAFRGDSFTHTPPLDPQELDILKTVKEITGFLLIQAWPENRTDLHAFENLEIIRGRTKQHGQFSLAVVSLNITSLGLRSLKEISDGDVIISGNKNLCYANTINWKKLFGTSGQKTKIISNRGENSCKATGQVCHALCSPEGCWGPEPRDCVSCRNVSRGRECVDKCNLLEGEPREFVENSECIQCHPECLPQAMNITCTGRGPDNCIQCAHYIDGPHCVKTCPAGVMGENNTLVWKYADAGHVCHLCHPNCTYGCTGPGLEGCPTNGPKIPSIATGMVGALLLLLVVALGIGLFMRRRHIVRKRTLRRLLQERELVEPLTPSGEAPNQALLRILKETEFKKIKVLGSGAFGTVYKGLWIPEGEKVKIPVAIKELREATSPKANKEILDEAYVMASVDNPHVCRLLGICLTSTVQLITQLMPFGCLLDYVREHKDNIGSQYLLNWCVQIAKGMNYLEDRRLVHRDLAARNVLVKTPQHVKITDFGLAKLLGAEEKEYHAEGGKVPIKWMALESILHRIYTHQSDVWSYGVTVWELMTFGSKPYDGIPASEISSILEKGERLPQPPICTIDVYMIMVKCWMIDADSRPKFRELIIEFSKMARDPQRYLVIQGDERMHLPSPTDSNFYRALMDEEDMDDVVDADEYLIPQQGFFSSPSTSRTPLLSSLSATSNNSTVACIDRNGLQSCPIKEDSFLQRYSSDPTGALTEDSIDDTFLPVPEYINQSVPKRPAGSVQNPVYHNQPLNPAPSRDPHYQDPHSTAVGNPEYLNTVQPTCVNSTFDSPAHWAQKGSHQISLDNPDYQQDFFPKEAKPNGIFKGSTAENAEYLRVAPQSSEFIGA
assay setup: dose 100.0 nM
Description: Inhibition of human EGFR at 100 nM using poly[Glu:Tyr] (4:1) as substrate in presence of [gamma33P]ATP by radiometric HotSpot assay relative to control
measure name: inhibition (%)

INSERT INTO assay_data (smiles_entry, reported_value) VALUES
  ('COc1cc(CNCCN(C)C)ccc1-c1cc2c(N[C@H](CO)c3ccccc3)ncnc2[nH]1', 100),
  ('OC[C@@H](Nc1ncnc2[nH]c(-c3cccnc3)cc12)c1ccccc1', 92),
  ('C[C@@H](Nc1ncnc2[nH]c(-c3cccc(C(N)=O)c3)cc12)c1ccccc1', 95),
  ('OCc1cc(-c2cc3c(N[C@H](CO)c4ccccc4)ncnc3[nH]2)ccc1F', 96),
  ('COc1cc(CN(C)CCN(C)C)ccc1-c1cc2c(N[C@H](CO)c3ccccc3)ncnc2[nH]1', 99),
  ('CCOc1ccccc1-c1cc2c(N[C@H](CCO)c3ccccc3)ncnc2[nH]1', 100),
  ('COc1cc(CNCCN2CCNCC2)ccc1-c1cc2c(N[C@H](CO)c3ccccc3)ncnc2[nH]1', 98),
  ('COc1cc(CNCCN2CCOCC2)ccc1-c1cc2c(N[C@H](CO)c3ccccc3)ncnc2[nH]1', 97),
  ('COc1cccc(OC)c1-c1cc2c(N[C@H](C)c3ccccc3)ncnc2[nH]1', 97),
  ('OCc1ccc(-c2cc3c(N[C@H](CO)c4ccccc4)ncnc3[nH]2)cc1F', 97),
  ('NC(=O)Cc1cccc(-c2cc3c(N[C@H](CO)c4ccccc4)ncnc3[nH]2)c1', 100),
  ('OCC[C@@H](Nc1ncnc2[nH]c(-c3ccccc3)cc12)c1ccccc1', 99),
  ('C[C@@H](Nc1ncnc2[nH]c(-c3ccc(S(N)(=O)=O)cc3)cc12)c1ccccc1', 96),
  ('COc1cc(CNCCN2CCCCC2)ccc1-c1cc2c(N[C@H](CO)c3ccccc3)ncnc2[nH]1', 99),
  ('CC(C)Oc1ccccc1-c1cc2c(N[C@H](C)c3ccccc3)ncnc2[nH]1', 98),
  ('CCOc1ccccc1-c1cc2c(N[C@H](CO)c3ccccc3)ncnc2[nH]1', 98),
  ('COc1cc(C(N)=O)ccc1-c1cc2c(N[C@H](CO)c3ccccc3)ncnc2[nH]1', 99),
  ('CC(=O)Nc1ccc(-c2cc3c(N[C@H](C)c4ccccc4)ncnc3[nH]2)cc1', 97),
  ('COc1cc(NS(C)(=O)=O)ccc1-c1cc2c(N[C@H](C)c3ccccc3)ncnc2[nH]1', 100),
  ('COc1cc(C(N)=O)ccc1-c1cc2c(N[C@H](C)c3ccccc3)ncnc2[nH]1', 98),
  ('COc1cnccc1-c1cc2c(N[C@H](CO)c3ccccc3)ncnc2[nH]1', 97),
  ('C[C@@H](Nc1ncnc2[nH]c(-c3ccc(C(N)=O)cc3)cc12)c1ccccc1', 97),
  ('C[C@@H](Nc1ncnc2[nH]c(-c3ccc(S(C)(=O)=O)cc3)cc12)c1ccccc1', 97),
  ('COC[C@@H](Nc1ncnc2[nH]c(-c3ccc(CO)cc3OC)cc12)c1ccccc1', 98),
  ('CS(=O)(=O)c1ccc(-c2cc3c(N[C@H](CO)c4ccccc4)ncnc3[nH]2)cc1', 96),
  ('C[C@@H](Nc1ncnc2[nH]c(-c3ccccc3OC(F)(F)F)cc12)c1ccccc1', 92),
  ('OC[C@@H](Nc1ncnc2[nH]c(-c3ccncc3)cc12)c1ccccc1', 94),
  ('COc1cc(NC(C)=O)ccc1-c1cc2c(N[C@H](CO)c3ccccc3)ncnc2[nH]1', 98),
  ('C[C@@H](Nc1ncnc2[nH]c(-c3ccccc3OC(F)F)cc12)c1ccccc1', 98),
  ('C[C@@H](Nc1ncnc2[nH]c(-c3ccncc3)cc12)c1ccccc1', 97),
  ('COC[C@@H](Nc1ncnc2[nH]c(-c3ccccc3OC(F)F)cc12)c1ccccc1', 96),
  ('CCOc1ccccc1-c1cc2c(N[C@H](C)c3ccccc3)ncnc2[nH]1', 99),
  ('COc1cc(CNCCN(C)C)ccc1-c1cc2c(N[C@H](C)c3ccccc3)ncnc2[nH]1', 99),
  ('CN(C)CCNCc1cc(-c2cc3c(N[C@H](CO)c4ccccc4)ncnc3[nH]2)ccc1F', 96);
